Data origin: patent US20230137032A1

# ASSAY TARGET: T1, recombinant cyno BCMA, in house material (cyno, UniProt A0A2K5UD97 4-52)
# T1 construct: also called Cyno in house BCMA
# T1 sequence (A0A2K5UD97 entry or part of it): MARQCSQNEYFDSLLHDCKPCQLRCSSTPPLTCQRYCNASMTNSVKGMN
# ASSAY PROCEDURE: Biacore T100, antibody captured on Protein A, 37C
Catalogue of Kd values
Quick reminder: number only, in nM, skip the unit.

CA8 humanised J7M2 (antibody, human IgG1, kappa, V domains shown, Humanised CA8, heavy chain J7 with light chain M2, human IgG1 kappa; also called CA8 J7M2) VH: QVQLVQSGAEVKKPGSSVKVSCKASGYTFTNYWMHWVRQAPGQGLEWMGATYRGHSDTYYNQKFKGRVTITADKSTSTAYMELSSLRSEDTAVYYCARGAIYDGYDVLDNWGQGTLVTVSS VL: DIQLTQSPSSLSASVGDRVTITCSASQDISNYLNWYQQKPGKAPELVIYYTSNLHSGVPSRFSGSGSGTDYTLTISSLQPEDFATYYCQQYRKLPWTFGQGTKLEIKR ... 1.29
CA8 humanised J7M1 (antibody, human IgG1, kappa, V domains shown, Humanised CA8, heavy chain J7 with light chain M1, human IgG1 kappa; also called CA8 J7M1) VH: QVQLVQSGAEVKKPGSSVKVSCKASGYTFTNYWMHWVRQAPGQGLEWMGATYRGHSDTYYNQKFKGRVTITADKSTSTAYMELSSLRSEDTAVYYCARGAIYDGYDVLDNWGQGTLVTVSS VL: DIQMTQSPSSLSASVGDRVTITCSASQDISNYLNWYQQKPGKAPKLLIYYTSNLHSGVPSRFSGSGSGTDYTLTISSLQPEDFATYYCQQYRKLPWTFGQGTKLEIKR ... 1.06
CA8 humanised J7M0 (antibody, human IgG1, kappa, V domains shown, Humanised CA8, heavy chain J7 with light chain M0, human IgG1 kappa; also called CA8 J7M0) VH: QVQLVQSGAEVKKPGSSVKVSCKASGYTFTNYWMHWVRQAPGQGLEWMGATYRGHSDTYYNQKFKGRVTITADKSTSTAYMELSSLRSEDTAVYYCARGAIYDGYDVLDNWGQGTLVTVSS VL: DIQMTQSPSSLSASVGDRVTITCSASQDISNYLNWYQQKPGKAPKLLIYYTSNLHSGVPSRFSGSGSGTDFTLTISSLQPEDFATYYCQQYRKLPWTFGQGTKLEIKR ... 1.14
CA8 humanised J9M2 (antibody, human IgG1, kappa, V domains shown, Humanised CA8, heavy chain J9 with light chain M2, human IgG1 kappa; also called CA8 J9M2) VH: QVQLVQSGAEVKKPGSSVKVSCKGSGYTFTNYWMHWVRQAPGQGLEWIGATYRGHSDTYYNQKFKGRATLTADTSTSTAYMELSSLRSEDTAVYYCTRGAIYDGYDVLDNWGQGTLVTVSS VL: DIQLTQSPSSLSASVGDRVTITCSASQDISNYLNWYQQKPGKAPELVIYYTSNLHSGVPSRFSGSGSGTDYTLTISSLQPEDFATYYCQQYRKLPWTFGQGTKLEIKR ... 0.515

Query string: Return Kd (reported value) for this binder: CA8 humanised J8M1 (antibody, human IgG1, kappa, V domains shown, Humanised CA8, heavy chain J8 with light chain M1, human IgG1 kappa; also called CA8 J8M1) VH: QVQLVQSGAEVKKPGSSVKVSCKASGYTFTNYWMHWVRQAPGQGLEWMGATYRGHSDTYYNQKFKGRVTITADKSTSTAYMELSSLRSEDTAVYYCTRGAIYDGYDVLDNWGQGTLVTVSS VL: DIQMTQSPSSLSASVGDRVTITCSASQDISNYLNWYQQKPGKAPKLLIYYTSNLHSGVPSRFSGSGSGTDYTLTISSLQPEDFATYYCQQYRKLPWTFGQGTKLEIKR
Result string: 1.28
